tested on: Bacillus subtilis; test: Antibacterial activity against Bacillus subtilis assessed as diameter of inhibition zone at 50 ug/well after 24 hrs by agar well diffusion method; assay type: functional; conditions: read-out: DIZ
// label = t if zone of inhibition at 50 µg/disc is not less than 20 mm, otherwise f

Past entries and their recorded results:
*Q* Can Cc1cc(SCc2nnc(-c3ccc(Br)cc3)n2N)nc(SCc2nnc(-c3ccc(Br)cc3)n2N)n1 be said to have zone of inhibition at 50 µg/disc at or above 20 mm?
*A* f

*Q* Can Cc1cc(SCc2nnc(-c3ccc([N+](=O)[O-])cc3)s2)nc(SCc2nnc(-c3ccc([N+](=O)[O-])cc3)s2)n1 be said to have zone of inhibition at 50 µg/disc at or above 20 mm?
*A* t

*Q* Can Cc1cc(SCc2nnc(-c3ccc(Cl)cc3)s2)nc(SCc2nnc(-c3ccc(Cl)cc3)s2)n1 be said to have zone of inhibition at 50 µg/disc at or above 20 mm?
*A* t

*Q* Can Cc1cc(SCc2nnc(-c3ccc(Cl)cc3)o2)nc(SCc2nnc(-c3ccc(Cl)cc3)o2)n1 be said to have zone of inhibition at 50 µg/disc at or above 20 mm?
*A* f

*Q* Can Cc1cc(SCc2nnc(-c3ccc(Br)cc3)s2)nc(SCc2nnc(-c3ccc(Br)cc3)s2)n1 be said to have zone of inhibition at 50 µg/disc at or above 20 mm?
*A* t

New cases:
*Q* Can Cc1cc(SCc2nnc(-c3ccccc3)n2N)nc(SCc2nnc(-c3ccccc3)n2N)n1 be said to have zone of inhibition at 50 µg/disc at or above 20 mm?
*A* f

*Q* Can O=C(N[C@H](CO)[C@H](O)c1ccc([N+](=O)[O-])cc1)C(Cl)Cl be said to have zone of inhibition at 50 µg/disc at or above 20 mm?
*A* t

*Q* Can Cc1ccc(-c2nnc(CSc3cc(C)nc(SCc4nnc(-c5ccc(C)cc5)s4)n3)s2)cc1 be said to have zone of inhibition at 50 µg/disc at or above 20 mm?
*A* f

*Q* Can Cc1cc(SCc2nnc(-c3ccc([N+](=O)[O-])cc3)o2)nc(SCc2nnc(-c3ccc([N+](=O)[O-])cc3)o2)n1 be said to have zone of inhibition at 50 µg/disc at or above 20 mm?
*A* f

*Q* Can Cc1cc(SCc2nnc(-c3ccc([N+](=O)[O-])cc3)n2N)nc(SCc2nnc(-c3ccc([N+](=O)[O-])cc3)n2N)n1 be said to have zone of inhibition at 50 µg/disc at or above 20 mm?
*A* t

*Q* Can Cc1cc(SCc2nnc(-c3ccccc3)s2)nc(SCc2nnc(-c3ccccc3)s2)n1 be said to have zone of inhibition at 50 µg/disc at or above 20 mm?
*A* f

*Q* Can Cc1ccc(-c2nnc(CSc3cc(C)nc(SCc4nnc(-c5ccc(C)cc5)n4N)n3)n2N)cc1 be said to have zone of inhibition at 50 µg/disc at or above 20 mm?
*A* f

Hello, the source for this data is ChEMBL document CHEMBL4251634, in case you need it.
